target: TRPV1 (Rattus norvegicus, UniProt O35433); construct: endogenous in cells; host or cells: dissociated nodose ganglion neurons from male Sprague Dawley rats (primary culture, used within 24 h); assay: Ratiometric Fura-2 calcium imaging in dissociated nodose ganglion (vagal afferent) neurons; type: cell-based; conditions: cultured vagal afferent neurons, Fura-2, sigmoid fit; AM251 present for AEA; read-out: EC50 for Calcium (peak cytosolic calcium)
Sequence (O35433 whole entry): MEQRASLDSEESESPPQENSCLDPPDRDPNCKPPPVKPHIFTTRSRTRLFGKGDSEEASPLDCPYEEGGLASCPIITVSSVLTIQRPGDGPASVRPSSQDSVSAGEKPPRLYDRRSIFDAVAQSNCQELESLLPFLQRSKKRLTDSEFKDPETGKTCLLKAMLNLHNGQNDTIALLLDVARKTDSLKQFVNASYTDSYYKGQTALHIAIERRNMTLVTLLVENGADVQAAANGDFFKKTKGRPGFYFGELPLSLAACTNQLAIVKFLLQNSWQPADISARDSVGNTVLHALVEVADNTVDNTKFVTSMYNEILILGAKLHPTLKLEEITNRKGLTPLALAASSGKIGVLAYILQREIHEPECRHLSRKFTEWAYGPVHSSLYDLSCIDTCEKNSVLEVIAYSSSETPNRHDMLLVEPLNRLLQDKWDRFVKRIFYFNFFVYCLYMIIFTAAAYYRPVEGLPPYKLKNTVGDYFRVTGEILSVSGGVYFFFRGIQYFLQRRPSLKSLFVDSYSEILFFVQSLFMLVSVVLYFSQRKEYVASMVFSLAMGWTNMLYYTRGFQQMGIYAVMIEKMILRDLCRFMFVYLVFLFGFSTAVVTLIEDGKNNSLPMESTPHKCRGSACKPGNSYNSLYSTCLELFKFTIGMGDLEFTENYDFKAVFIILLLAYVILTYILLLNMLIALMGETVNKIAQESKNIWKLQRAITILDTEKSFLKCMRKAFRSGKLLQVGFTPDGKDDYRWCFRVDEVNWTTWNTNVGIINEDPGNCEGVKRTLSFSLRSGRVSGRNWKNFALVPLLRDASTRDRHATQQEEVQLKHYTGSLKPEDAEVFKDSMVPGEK
OBSERVATION TYPE: EC50 (µM)
Record the value in µM, omitting the unit from your answer.

Recorded result, CCCCC/C=C\C/C=C\C/C=C\C/C=C\CCCC(=O)NCCO [AEA, anandamide] , EC50: 1.95

###

Target: TRPV1 (Rattus norvegicus, UniProt O35433)
Construct: endogenous in cells; host or cells: dissociated nodose ganglion neurons from male Sprague Dawley rats (primary culture, used within 24 h)
Experiment: Whole-cell patch-clamp current recordings in dissociated nodose ganglion neurons
Format: cell-based
Experimental: Nodose ganglia were isolated bilaterally from rats and mice under a deep plane of anesthesia (Ketamine, 25 mg/100 g; with Xylazine, 2.5 mg/100 g) using aseptic surgical conditions previously reported (Lancaster and Weinreich, [2001]; Simasko et al., [2002]). Following a midline incision in the neck, the musculature was retracted and blunt dissection techniques were used to dissociate the vagal trunk from the common carotid artery. […]
OBSERVATION TYPE: pEC50
pEC50 here is simply -log10 of the concentration when that concentration is written in mol/L.

Record summary for CCCCC/C=C\C/C=C\C/C=C\C/C=C\CCCC(=O)NCCO [AEA, anandamide] : reported pEC50 = 5.01
